- testDescription: M. tuberculosis growth inhibition, HTS (AID 449762);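 further: bacterial growth assessed after seven days of incubation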
- experimentalParameters: M. tuberculosis H37Rv growth inhibition, 7H9 media; at 25 µM; hits give high values
About 1,900 (0.58%) of roughly 330,000 compounds were called active. About 4% were inconclusive and are not listed. The list is a sample of the results. Potency and affinity values are given separately.
Measured inhibition accompanies every entry in the list below.
Only the number, expressed in %, is required.

Check out these entries, answers already filled in.
[
  {
    "molecule": "Cc1c(C(=O)CN2CCCC(C)(C)C2)c2ccccc2n1C",
    "inhibition [%]": 5.6
  },
  {
    "molecule": "COc1ccccc1NC(=O)CCc1nnc2ccc(N3CCC4(CC3)OCCO4)nn12",
    "inhibition [%]": -1.86
  },
  {
    "molecule": "CC(C)N(C(=O)[C@H]1CC(CC(=O)NCC23CC4CC(CC(C4)C2)C3)C(=O)N2CCc3c([nH]c4ccccc34)[C@]12C)C(C)C (some centres undefined)",
    "inhibition [%]": 69.1
  },
  {
    "molecule": "CC(=O)NCCNC(=O)C1CCC(CNc2nc(=S)[nH]c3ccccc23)CC1 (centres undefined)",
    "inhibition [%]": -6.34
  },
  {
    "molecule": "N#C/C(=N\\Nc1ccccc1)C(N)=S",
    "inhibition [%]": 2.54
  }
]

Now consider the entry below.
// field: inhibition; key: COc1ccc(-c2cn(Cc3cccc(OC)c3)nn2)cc1 ; value = -1.15
